- MEASUREMENT PROTOCOL: Pharmacokinetic study in rats, IV and oral gavage, with brain penetration
- Assay type: in vivo, rat
- RUN PARAMETERS: male, Sprague Dawley, brain, intravenous, 1 mg/kg; rat, 0.5 h; read-out: Brain/Plasma ratio (0.5 h)
- Procedure: In pharmacokinetic (PK) studies, animals were administered compounds of the present disclosure and PK parameters were measured. Rats (male, Sprague Dawley) were administered compound of Example 158 at a dose of 1.0 mg/kg intravenously (IV) or 10 mg/kg via oral gavage (PO). Blood samples were taken at t=0.083, 0.25. 0.5, 1, 2, 4, 6, 8 and 24 h post-dose and the plasma was analyzed for concentration of test article (compound of Example 158). […]
ASSAY READOUT: Kp at 0.5 h
Answers are plain numbers.

IN: Dear colleague, please send me the reported Kp at 0.5 h for `COc1ccc(OC(=O)NC2CCCCCC2)cc1-c1cncc(-c2nnco2)c1` when you can.
OUT: 0.15
